Reported one-hybrid fitness for binding NBS DNA values for the following variants.
B1: Caulobacter ParB omega fusion; a variant is named by its letters at X, in order, B8GW30 (parent)
chain: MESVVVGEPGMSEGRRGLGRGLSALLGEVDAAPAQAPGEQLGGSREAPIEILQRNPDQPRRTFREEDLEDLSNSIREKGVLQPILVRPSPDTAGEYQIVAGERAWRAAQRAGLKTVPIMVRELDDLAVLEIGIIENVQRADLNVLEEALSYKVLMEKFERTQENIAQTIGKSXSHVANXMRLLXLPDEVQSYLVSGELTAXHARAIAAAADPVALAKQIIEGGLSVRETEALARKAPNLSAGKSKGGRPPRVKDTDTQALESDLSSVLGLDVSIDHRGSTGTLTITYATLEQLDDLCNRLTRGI

Variants of: B1
Method Notes: one-hybrid fitness for binding NBS DNA (the Noc-binding site; scaled: cognate 1, non-cognate 0); higher = stronger binding
Condition Description: with NBS DNA site
Whole data set: some 81,000 sequences, median “one-hybrid fitness for binding NBS DNA” near -0.1, cut for the highest 2% near 0.36. The list comes from a sample in which the highest values are over-represented; it also holds close analogues and randomly drawn sequences.

# Sequence Variant, one-hybrid fitness for binding NBS DNA
rows = [
    ("RPKY", "≤ 0.2"),
    ("APPM", "≤ 0.2"),
    ("QQPH", "≤ 0.2"),
    ("GLTI", "≤ 0.2"),
    ("TAQM", "≤ 0.2"),
    ("SWRR", "≤ 0.2"),
    ("QLQP", "≤ 0.2"),
    ("RADT", "≤ 0.2"),
]

Measured one-hybrid fitness for binding NBS DNA of RSIT : ≤ 0.2

Record summary for GGCG : reported one-hybrid fitness for binding NBS DNA = ≤ 0.2

Value of one-hybrid fitness for binding NBS DNA reported for the variant PNNH is ≤ 0.2

Memo: GIHG , reported one-hybrid fitness for binding NBS DNA: ≤ 0.2

Reported one-hybrid fitness for binding NBS DNA of YRCS : ≤ 0.2
